Organism: Rattus norvegicus
measurement.protocol: Open TG-GATES - Regimen: Daily Repeat
Format: toxicity, organism-based, Sprague-Dawley
Parameters: regimen Daily Repeat, gender Male, age 6 weeks
applied.conditions: in vivo, po, 100 mg/kg, 72 h, tissue Plasma, route gavage, dose level Low, time 3 day
metric: Na
Answer shape: numeric part, then the unit.

molecule	Na
CC(S)C(=O)NCC(=O)O (centres undefined)	140.8 meq/L
O=C(O)c1ccccc1Nc1ccccc1	143.6 meq/L
CC(=O)[C@@]1(O)CC[C@H]2[C@@H]3C=C(Cl)C4=CC(=O)CC[C@]4(C)[C@H]3CC[C@@]21C	141.6 meq/L

According to the records, this molecule CCCCNC(=O)NS(=O)(=O)c1ccc(C)cc1 [TOLBUTAMIDE] displays Na of 142.6 meq/L
